Entries annotated with measured melting point

Known results for molecules:
# molecule, melting point
data = [
    ("Cn1c(=O)c(C#N)c(N2CCN(C(=O)c3cccs3)CC2)c2cc(F)ccc21", "286 °C"),
    ("CS(=O)(=O)Cc1c(C(=O)c2cnoc2C2CC2)ccc(S(C)(=O)=O)c1Cl", "110 °C"),
    ("CCC(C)N(C)C(=O)c1cc(-c2ccccc2F)c2ccccc2n1 (centres undefined)", "86 °C"),
    ("O=C(Nc1ccc(F)cc1)N[C@H]1CCCN(C(=O)c2ccc(F)cc2)C1", "228 to 231 °C"),
    ("c1ccc(CCOc2ncnc3nc[nH]c23)cc1", "209 to 210 °C"),
]

stdin: Look up melting point for this molecule: O=C(O)C(=Cc1cccnc1)c1ccc(Cl)cc1Cl
stdout: 208 to 211 °C

---

result.type: melting point

# molecule, melting point
rows = [
    ("Cc1c(S(=O)(=O)C(F)(F)F)cnn1-c1c(Cl)cc(C(F)(F)F)cc1Cl", "83 to 85 °C"),
]

stdin: Returns the measured melting point for the input molecule. Input: O=C(NCCO)c1cccc(-c2ccc3c(c2)N(c2ccc(Cl)c(Cl)c2)CC3)c1
stdout: 167 to 168 °C

stdin: # query: melting point of entry CN(C)CCOc1ccc2oc(-c3cc4ccccc4cn3)cc(=NO)c2c1
stdout: 203 to 205 °C

stdin: Item under review: CCOC(=O)C(O)CCn1cnc2c(Cl)nc(N)nc21 (stereo not given) . Reported melting point?
stdout: 163 to 164 °C

stdin: Record request: melting point value, item O=C(O)C1=CS[C@@H]2/C(=C\c3ccc4nc5n(c4c3)CCS5)C(=O)N12
stdout: > 250 °C

---

Attribute: melting point

# compound, assay.result
data = [
    ("N=C(Nc1cc(Cl)cc(NC(=O)/C=C/c2ccccc2C(F)(F)F)c1)c1ccsc1", "121 to 123 °C"),
]

stdin: Returns the measured melting point for the input compound. Input: COc1ccccc1N1CCN(CCCNC(=O)c2cc(OC(C)=O)cc3c(=O)c(C)c(-c4ccccc4)oc23)CC1
stdout: 148 to 149 °C

stdin: Tell me the measured melting point of O=C(NCc1ccccc1)c1ccnc(-n2cnn(CC3CC3)c2=O)c1 , please.
stdout: 137 to 139 °C

stdin: So what's the measured melting point for this one? O=C(O)c1cccc(CN2CCC(c3cn(Cc4ccoc4)c4ncccc34)CC2)c1
stdout: 177 to 179 °C

stdin: GET /values?readout=melting point&item= c1ccc(-c2nn3c(c2-c2nc4ncccc4[nH]2)CCC3)nc1
stdout: 170 to 172 °C

stdin: Give its melting point value. Item: CC(=O)NC1=NN(c2ccccc2)CC1
stdout: 190 to 191 °C

---

result.type: melting point

Some entries whose results are on file:
# compound, melting point
rows = [
    ("CC(=O)Nc1nc(-c2cc(C)cc(C)c2)c(-c2ccncc2)s1", "284 to 286 °C"),
    ("CN1N=C2C(=Cc3ccccc3)CN(C(=O)CCl)CC2C1c1ccccc1 (stereo not drawn)", "88 to 90 °C"),
    ("Cc1ccc(Cl)cc1C1CC(=O)c2c(C)ccnc2C1 (stereo not drawn)", "125 to 127 °C"),
    ("CCCCC(=O)OC1(C(C)=O)C(C)CC2C3CCC4=CC(=O)C=CC4(C)C3(Cl)C(Cl)CC21C (stereo not drawn)", "170 to 172 °C"),
    ("CC(=O)NCC1CN(c2ccc(N3CCN(C(=O)COC(=O)CN4CCN(C)CC4)CC3)c(F)c2)C(=O)O1 (stereo not drawn)", "128 to 129 °C"),
]

stdin: # get_value(readout='melting point', item= CCCN=C(N)Nc1ccnc(S(C)=O)n1 (stereo not drawn) )
stdout: 179 to 180 °C

stdin: Could you share which melting point value was measured for CCc1nccn1-c1ccc(NC(=O)NC)cc1 ?
stdout: 228 to 232 °C

stdin: For OC1(C#Cc2ccccc2Cc2ccccc2)CN2CCC1CC2 (stereo not drawn) , what is its reported melting point?
stdout: 156 to 157 °C

stdin: Can you share its melting point? I mean this compound: CC(C)(C)C(=O)c1c[nH]c2ncc(N3CCc4ccccc4C3=O)nc12
stdout: 113 to 115 °C

stdin: Looking for the measured melting point of CNC(=O)CS(=O)(=O)c1ccccc1 , can you help?
stdout: 106 to 109 °C

stdin: Which melting point reading was recorded for the compound CCCC1=C(c2cccc([N+](=O)[O-])c2)C(=NO)CC1 ?
stdout: 128 to 129 °C

stdin: What melting point value was documented for this compound, COc1ccc2c(c1)c(-c1ccccc1)nc(=O)n2CC1CC1 ?
stdout: 114 to 115 °C

---

Measured melting point of individual entries

# molecule, melting point
data = [
    ("CCOC(=O)c1ccc(NC=O)c(C(=O)CCNC(=O)OC(C)(C)C)c1", "135 to 137 °C"),
]

stdin: Entry Cc1cccc2c1ncn2Cc1oc2ccc(Br)cc2c(=O)c1-c1ccccc1 has what melting point?
stdout: 176 to 179 °C

stdin: Fill blank: measured melting point of the molecule CC[C@@H](C)NCc1cnc2c(C)c(NC(=O)c3ccc(OC[C@@H]4CCCO4)cc3)ccc2c1 is ____.
stdout: 118 to 119 °C

stdin: GET /values?readout=melting point&item= COc1ccc2c(c1)-c1nn(CCCl)c3ccc([N+](=O)[O-])c(c13)N2
stdout: 264 to 265 °C

stdin: Which melting point value belongs to Cc1cc(C2=NOC(c3cc(Cl)cc(Cl)c3)(C(F)(F)F)C2)ccc1C(=O)Nc1ncc(C#N)cn1 (stereo not given) ?
stdout: 118 to 121 °C

stdin: Name the recorded melting point for CCOC(=O)CCN(C)CC(C(=O)OC)c1cc(OC)c(CC)c(OC)c1 (stereo not given) .
stdout: 74 to 75 °C

stdin: For the molecule shown here, OC(c1cc(Cl)cc(Cl)c1)c1cc(Cl)cc(Cl)c1 , give the reported melting point.
stdout: 126 °C

stdin: // melting point lookup, key: N#CCC(=O)Nc1ccnn1-c1c(Cl)cc(C(F)(F)F)cc1Cl
stdout: 169 to 175 °C

---

Entries and their melting point values follow.

stdin: May I ask what melting point has been recorded for O=C1c2ccccc2C(O)(c2ccccc2)N1CCc1ccc(O)cc1 (centres undefined) ?
stdout: 188 °C

stdin: For the compound shown here, COC(=O)CCCC(C)(C)c1cc(O)c(C(C)(C)C)cc1O , give the reported melting point.
stdout: 136 to 139 °C

---

result.type: melting point

# molecule, melting point
measured = [
    ("Cc1cccc2c1C(=O)N1CCCC1C(=O)N2 (stereo not drawn)", "212 to 214 °C"),
    ("CC1(C)CC(=O)c2c(SC(C)(C)C)sc(-c3cc[nH]n3)c2C1", "220 to 222 °C"),
    ("CC(C)c1c(C(=O)Nc2ccc(C(=O)O)cc2)c(-c2ccccc2)c(-c2ccc(F)cc2)n1CC[C@@H]1C[C@H](CC(=O)OC(C)(C)C)OC(C)(C)O1", "240 to 242 °C"),
    ("CCC(C)(C)O[C@H]1COC[C@H](NC(=O)c2nccc(OC)c2O)C(=O)O[C@@H](C)[C@@H]1OCC(C)C", "138 to 140 °C"),
    ("CCCCNc1c(C(=O)OCC)c(C)nc2[nH]nnc12", "188 to 189 °C"),
]

stdin: Which measured melting point value corresponds to COC(=O)c1cc(OCC=C(Cl)Cl)cc(Cl)c1OC ?
stdout: 103 °C

stdin: // query melting point value for entry O=C(NCc1ccc(F)cc1)c1ccnc(N2CCN(Cc3ccc(F)c(F)c3)C2=O)c1
stdout: 165 to 167 °C

stdin: Request the reported melting point associated with CCCCCCCCCCCCCCCCOc1ccccc1-c1ccccc1
stdout: 35 to 37 °C

stdin: Fill blank: measured melting point of the molecule N#Cc1[nH]c(-c2ccc(Cl)cc2Cl)nc1N is ____.
stdout: 223 to 225 °C

stdin: What value of melting point has been reported for the following molecule? CCC1(CC)CN(C(C)(C)C)C(=O)C(CC)(CC)N1OC(=O)C(C)(C)C
stdout: 58 to 60 °C

---

result.type: melting point

The following molecules have reported results that may help.
# molecule, melting point
records = [
    ("Cc1oc(-c2ccccc2)nc1COc1ccc(CON=C(CC(=O)O)c2ccccc2)cc1", "107 to 108 °C"),
    ("CC#Cc1cn(C2OC(COC(C)=O)C(OC(C)=O)C2OC(C)=O)c(=O)[nH]c1=O (centres undefined)", "150 to 157 °C"),
    ("O=[N+]([O-])c1ccc(Oc2ccc(S(=O)(=O)NC3CCCCC3)cc2)cc1", "94 °C"),
    ("CCOC(=O)c1cccc(Nc2nccc(-c3ccnc(Cl)c3)n2)c1", "149 to 150 °C"),
    ("COc1ccc(CSc2nc(-c3ccccc3)n(Cc3cc4c(cc3Cl)OCO4)c2C=O)cc1", "120 °C"),
    ("N#CN1CCC2(CC1)CN(c1ccccc1[N+](=O)[O-])c1ccccc12", "148 to 150 °C"),
]

stdin: Field request: melting point | item: CCOC(=O)c1cn(Cc2ccccc2OC)c2sc(-c3ccc(NC(C)=O)cc3)c(CN(C)Cc3ccccc3)c2c1=O
stdout: 161 to 163 °C

stdin: Request the reported melting point associated with C=CCOC(=O)c1ccc(COC(=O)Nc2cnc(-c3ccccc3)n(CC(=O)NC(Cc3ccccc3)C(O)C(F)(F)F)c2=O)cc1 (centres undefined)
stdout: 126 to 135 °C

stdin: Item Cc1ccc(C)c(C(=O)CC#N)c1 has what recorded melting point?
stdout: 75 to 76 °C

stdin: Look up melting point: CC(C)CCSc1cc(C(=O)O)cc(S(N)(=O)=O)c1-c1ccccc1
stdout: 70 to 74 °C
